Test system: A549
Experiment: Inhibition of cell proliferation (MTS assay)
Format: cell-based
Conditions: Homo sapiens, A549, c-Met^hiTrkB^hi, 72 h
measuredProperty: IC50 (µM)
Quick note: give the figure in µM, leave out the unit.

What value of IC50 has been reported for the following compound? Cc1ccccc1NS(=O)(=O)c1ccc2c(c1)/C(=C/c1nc3ccccc3[nH]1)C(=O)N2 [Indo5]
1.62

====

System: c-Met^loTrkB^hi and c-Met^loTrkB^lo cells
Assay: Cell growth of cells expressing TrkB alone or both low
Format: cell-based
Settings: Homo sapiens, read-out: IC50 value, range over cell lines
measuredProperty: IC50

Request - read-out IC50 | tested on c-Met^loTrkB^hi and c-Met^loTrkB^lo cells | compound Cc1ccccc1NS(=O)(=O)c1ccc2c(c1)/C(=C/c1nc3ccccc3[nH]1)C(=O)N2
2.98 to 9.19 µM

Cited source for all entries: paper PMC6421704
